# TARGET_SYSTEM: human glucocorticoid receptor (Homo sapiens, UniProt P04150)
# Construct: purified human recombinant full-length glucocorticoid receptor (2 nM); purchased Invitrogen Part #2893
# Sequence (P04150 1-777): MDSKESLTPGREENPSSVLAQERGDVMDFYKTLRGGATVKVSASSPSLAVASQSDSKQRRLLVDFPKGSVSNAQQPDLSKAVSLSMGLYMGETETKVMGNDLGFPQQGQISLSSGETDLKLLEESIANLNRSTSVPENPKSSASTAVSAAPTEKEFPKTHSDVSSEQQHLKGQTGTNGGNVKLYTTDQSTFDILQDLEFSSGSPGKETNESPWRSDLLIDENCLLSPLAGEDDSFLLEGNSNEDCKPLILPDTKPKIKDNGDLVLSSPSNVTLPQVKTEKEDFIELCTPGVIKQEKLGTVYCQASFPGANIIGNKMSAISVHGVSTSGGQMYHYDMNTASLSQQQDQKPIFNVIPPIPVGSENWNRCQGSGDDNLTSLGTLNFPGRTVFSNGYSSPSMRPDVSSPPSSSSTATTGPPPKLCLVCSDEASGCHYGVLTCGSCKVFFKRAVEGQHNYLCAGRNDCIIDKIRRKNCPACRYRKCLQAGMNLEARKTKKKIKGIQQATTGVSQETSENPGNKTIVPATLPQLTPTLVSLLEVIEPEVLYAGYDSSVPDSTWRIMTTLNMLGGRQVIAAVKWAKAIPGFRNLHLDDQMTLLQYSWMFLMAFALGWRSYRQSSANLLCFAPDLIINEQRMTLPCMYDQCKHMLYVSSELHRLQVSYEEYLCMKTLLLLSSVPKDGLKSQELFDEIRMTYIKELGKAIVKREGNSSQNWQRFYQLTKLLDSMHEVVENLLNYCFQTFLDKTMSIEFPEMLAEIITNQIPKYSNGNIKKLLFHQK
# PROTOCOL_TEXT: Glucocorticoid Receptor Binding Assay (I), fluorescence polarization competitor kit
# CONDITION_PARAMETERS: purified human recombinant full-length GR, Fluormone GS Red
Checkbox rule: Ki lower than 4 nM = met; Ki not lower than 4 nM = not met.

input: Below 4 nM on Ki? Entry CCN(CC)C(=O)c1ccc(-c2ccc(C(c3ccccc3)C(C)(C)C(=O)Nc3nncs3)s2)cc1 (stereo not drawn)
output: met

input: Below 4 nM on Ki? Entry `CN(C)C(=O)c1ccc(-c2ccc([C@@H](c3cccc(F)c3)C(C)(C)C(=O)Nc3nncs3)s2)cc1Cl`
output: not met

input: Below 4 nM on Ki? Entry `CC(C)(C(=O)Nc1nncs1)[C@@H](c1cccc(F)c1)c1ccc(-c2ccc(C(=O)N3CCCCC3)cc2)s1`
output: met

input: Below 4 nM on Ki? Entry CC(C)(C(=O)Nc1nncs1)C(c1ccccc1)c1ccc(Br)s1 (single isomer, unassigned) [Example 84]
output: not met

input: Below 4 nM on Ki? Entry `CCNC(=O)c1ccc(-c2ccc([C@H](c3cccc(F)c3)C(C)(C)C(=O)Nc3nncs3)s2)cc1`
output: not met

input: Below 4 nM on Ki? Entry C[C@@H](C(=O)Nc1nncs1)[C@H](c1ccccc1)c1ccc(-c2ccc(C(=O)N3CCOCC3)cc2)s1 (stereo in doubt)
output: not met

input: Below 4 nM on Ki? Entry `CCN(C)C(=O)c1ccc(-c2ccc([C@@H](c3cccc(F)c3)[C@@H](C)C(=O)Nc3ncc(C)s3)s2)cc1`
output: met

input: Below 4 nM on Ki? Entry `CC(C)(C(=O)Nc1nncs1)[C@@H](c1cccc(F)c1)c1ccc(Br)s1`
output: met

input: Below 4 nM on Ki? Entry `C[C@@H](C(=O)Nc1nncs1)[C@H](c1cccc(F)c1)c1ccc(-c2ccc(C(=O)N3CCC3)c(F)c2)s1`
output: met

input: Below 4 nM on Ki? Entry `CC(C)(C(=O)Nc1nncs1)[C@H](c1cccc(F)c1)c1ccc(-c2ccc(C(=O)O)c(F)c2)s1`
output: not met

input: Below 4 nM on Ki? Entry CC(C)(C(=O)Nc1nncs1)C(c1cc(F)cc(F)c1)c1ccc(Br)s1 (stereo not drawn)
output: met

input: Below 4 nM on Ki? Entry COc1ccc(-c2ccc(C(c3cccc(F)c3)C(C)(C)C(=O)Nc3nncs3)s2)cc1 (stereo not drawn)
output: not met

input: Below 4 nM on Ki? Entry `C[C@H](C(=O)Nc1nncs1)[C@@H](c1ccccc1)c1ccc(Br)s1`
output: not met

input: Below 4 nM on Ki? Entry `CC(C)(C(=O)Nc1nncs1)[C@@H](c1cccc(F)c1)c1ccc(-c2ccc(C(=O)NC3CC3)cc2)s1`
output: not met
